Source: paper PMC9090415

Field: % inhibition ApPOL 90'. Provide a value for each of the compounds that follow.
study_system: P. falciparum apicoplast DNA polymerase (Pf-apPOL) (Plasmodium falciparum, UniProt Q8ILY1)
Sequence (Q8ILY1 entry or part of it): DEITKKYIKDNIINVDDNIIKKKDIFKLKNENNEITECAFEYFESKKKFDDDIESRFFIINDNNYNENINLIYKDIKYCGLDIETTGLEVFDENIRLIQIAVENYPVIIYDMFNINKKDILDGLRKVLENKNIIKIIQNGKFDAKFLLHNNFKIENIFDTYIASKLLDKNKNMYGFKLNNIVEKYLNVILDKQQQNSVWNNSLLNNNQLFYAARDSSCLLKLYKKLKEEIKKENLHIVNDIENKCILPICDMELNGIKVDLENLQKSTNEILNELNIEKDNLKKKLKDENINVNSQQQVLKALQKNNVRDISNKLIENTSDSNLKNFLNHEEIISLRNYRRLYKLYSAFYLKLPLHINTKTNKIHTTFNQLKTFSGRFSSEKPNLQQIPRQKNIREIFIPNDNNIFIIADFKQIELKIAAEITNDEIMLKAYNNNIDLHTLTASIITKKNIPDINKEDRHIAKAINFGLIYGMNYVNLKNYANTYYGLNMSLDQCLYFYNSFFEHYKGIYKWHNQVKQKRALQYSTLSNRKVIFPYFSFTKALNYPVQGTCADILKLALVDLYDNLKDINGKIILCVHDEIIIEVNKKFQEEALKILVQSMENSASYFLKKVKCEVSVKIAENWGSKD
procedure_text: Fluorescence-based high-throughput DNA polymerase assay (molecular beacon), primary screen and dose-response;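 also: test concentration in µM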
Type: biochemical
measurement_parameters: DRC-2, 90', concentration 10
Report the figure in % without appending any unit label.

Task item: Quick check: % inhibition ApPOL 90' of CCOC(=O)C(NCc1ccco1)(NC(=O)c1ccco1)C(F)(F)F (centres unmarked) ?
Reply: 7

Task item: Param item = "CCSc1nnc(NC(=O)Cc2csc(NC(=O)c3cnccn3)n2)s1" ; retrieve measured % inhibition ApPOL 90'.
Reply: 22

Task item: What value of measured % inhibition ApPOL 90' is listed for "O=C(Nc1nnc(-c2cccs2)o1)c1ccc([N+](=O)[O-])o1" ?
Reply: 24

Task item: What does the data say about its % inhibition ApPOL 90'? Entry: "COc1cc(/C=C2\S/C(=N/C(C)=O)NC2=O)cc(Br)c1OCC(=O)O"
Reply: 9.51

Task item: // returns reported % inhibition ApPOL 90' for input "Cn1nc(C(=O)N2CCc3c(nc4cc(-c5ccccc5)[nH]n4c3=O)C2)c2ccccc21"
Reply: 39
